The compounds listed here are annotated with their GI50.
Test system: RPMI-8226
Test: NCI tumour cell line growth inhibition, 48 h
The source made the active and inactive calls. Rule as the data show it: active = GI50 up to about 1.1 µM and inactive = higher.
MEASURE: GI50

* Cc1ccc(S(=O)(=O)NC(=O)NC(CO)C(=O)O)cc1 (stereo not given) | > 100 µM (inactive)
* CN1CCN(CCCCNc2cc3c4ccccc4c(NCCCCN4CCN(C)CC4)cc3c3ccccc23)CC1 | 1.38 µM (inactive)
* CC(=O)C1=C(c2ccccc2)N(C2OC(CO)C(O)C(O)C2O)C(S)=C(C#N)C1c1ccc(Cl)cc1 (stereo not given) | 29.9 µM (inactive)
* CCOC(=O)/C=C/C(Br)=C(Br)/C=C/C(=O)OCC | 2.59 µM (inactive)
* CCOC(=O)C(NC(=O)CC(C)C)(N1CCN(c2cc3c(cc2F)c(=O)c(C(=O)O)cn3C2CC2)CC1)C(F)(F)F (stereo not given) | 20.9 µM (inactive)
* CC(=O)C1Cn2c(nc3ccccc32)C[Se]1 (stereo not given) | 25.3 µM (inactive)
* COc1c(O)cc2c(c1O)C(=O)C(Cc1ccc(O)cc1)CO2 (stereo not given) | 25.7 µM (inactive)
* CCC[C@H]1O[C@@H]2CC(=O)O[C@@H]2C2=C1C(=O)C=CC2=O | 25.6 µM (inactive)
* CSC1C(=O)Nc2ccc3ccccc3c21 (stereo not given) | 3.13 µM (inactive)
* COCC[N+](CCNC(=O)c1cccc2c(N)c3cccc(C)c3nc12)(CCOC)Cc1ccc([N+](=O)[O-])cc1 | 5.6 µM (inactive)

###

Test system: SW-620
Assay: NCI tumour cell line growth inhibition, 48 h
Active and inactive are the calls of the source. Cut-off read from the data, not from the text of the source: active = GI50 up to about 1.1 µM and inactive = higher.
MEASURE: GI50

* Cc1nc(N)sc1/N=N/c1cc(Cl)c([N+](=O)[O-])cc1Cl | 16.4 µM (inactive)
* O=C1CC(c2ccc[nH]2)=NN1c1ccccc1 | > 100 µM (inactive)
* O=C(O)CCc1nc2c(n1-c1ccccc1)C(=O)c1ccccc1C2=O | > 100 µM (inactive)
* N#Cc1ccccc1NC(=O)C(=O)C(C(=O)c1ccccc1F)C1OC(=O)c2ccccc21 (stereo not given) | > 100 µM (inactive)
* Cc1ccc(C(=O)Nc2ccc(S(=O)(=O)O)c3cc(S(=O)(=O)O)cc(S(=O)(=O)O)c23)cc1N | > 100 µM (inactive)

###

System: IGROV-1
Assay: NCI tumour cell line growth inhibition, 48 h
The source made the active and inactive calls. Rule as the data show it: active = GI50 up to about 1.1 µM and inactive = higher.
MEASURE: GI50

• Cc1oc2c(c1C)S(=O)(=O)C(C#N)=CN2 = > 100 µM (inactive)
• C=CCSSCC=C = > 71.6 µM (inactive)
• CC(=O)C1=C(c2ccccc2)N(C2OC(CO)C(O)C(O)C2O)C(S)=C(C#N)C1c1ccc(Cl)cc1 (stereo unspecified) = 39.7 µM (inactive)
• COc1ccc(-c2nc(-c3cnccn3)n(C/C=C/c3ccccc3)n2)cc1 = 48.1 µM (inactive)
• O=C(/C=C/c1ccccc1F)c1ccc(Cl)c(Cl)c1 = 34.3 µM (inactive)
• COc1cc(C2c3cc4c(cc3[C@@H](N(C)C)[C@H]3COC(=O)C23)OCO4)cc(OC)c1O (stereo partly specified) = 72.1 µM (inactive)

###

The reader will find GI50 measurements below, all made with HCT-15.
MEASURE: GI50

- C/C(=N\NC(=N)N)C(CN(CC(C)C)CC(C)C)C(=O)Nc1ccc(C)cc1C (configuration not stated): > 100 µM
- COc1cc(/C=C2\C[C@H]3[C@@H]4CC=C5C=C(N6CCCC6)CC[C@]5(C)[C@H]4CC[C@]3(C)C2=O)cc(OC)c1OC: 2.23 µM
- CC(=O)O[C@H]1C(=O)[C@@]2(C)C(C(OC(=O)c3ccccc3)[C@]3(O)CC(OC(=O)[C@H](OC(=O)CCC(=O)O)C(NC(=O)c4ccccc4)c4ccccc4)C(C)=C1C3(C)C)C1(OC(C)=O)COC1C[C@@H]2O (some centres not stated): 0.995 µM
- O=C1C(O)=C(CCCc2ccc(Oc3ccccc3)cc2)C(=O)c2ccccc21: 4.28 µM
- CCN(CC)C(=S)N/N=C(\C)c1ccccc1O: 3.72 µM
- COC1(c2ccc(Cl)cc2)SC=C(C)n2c1noc2=O (configuration not stated): > 100 µM
- O=c1c(=O)c2cscc2c1=O: 5.78 µM

###

Tested on: OVCAR-5
Test: NCI tumour cell line growth inhibition, 48 h
The source made the active and inactive calls. Cut-off read from the data, not from the text of the source: active = GI50 up to about 1.1 µM and inactive = higher.
Labels: TRUE for active, FALSE for inactive

- COC(=O)C1Cc2c([nH]c3ccccc23)C(c2ccccc2O)N1Cc1ccccc1 (configuration not stated): FALSE
- COc1cc(CNc2ccc(C)cc2)cc(OC)c1OC: FALSE
- CN(/N=C(\C(=O)O)c1ccccc1)C1=NCCN1: FALSE
- O=C1C=Cc2c(Cl)sc(Cl)c21: FALSE
- COc1cc2cc3c4c(cc(OC)c(OC)c4c2cc1OC)CCN3C(=O)N(C)C: FALSE
- C/C(=N\NC(=N)N)C(CN(CC(C)C)CC(C)C)C(=O)Nc1ccc(C)cc1C (configuration not stated): FALSE
- O=C1c2ccccc2C(=O)c2c(NCCCNCCO)ccc(NCCCNCCO)c21: FALSE
- COc1ccc(C2=NN(c3ccccc3)C(c3cc4cc(Br)ccc4nc3Cl)C2)cc1 (configuration not stated): FALSE
- O=C1Nc2c(Cl)cc(Cl)cc2/C1=N/N=C/c1ccco1: FALSE
- O=C(CC(=O)c1ccccc1)C(=O)Nc1ccc(Cl)cc1: FALSE
- CN(C)c1ccc(/C=C2\C[C@H]3[C@@H]4CCc5cc(OCCN6CCCC6)ccc5[C@H]4CC[C@]3(C)[C@H]2O)cc1: FALSE
- CC(C)C(C(=O)O)N1C(=O)c2ccccc2C1=O (configuration not stated): FALSE
- Oc1ccc(Nc2nc(Cl)c3nc[nH]c3n2)cc1: FALSE
- CC1CCC23COC(=O)C2C(O)CCC3C1(C)CC(O)c1ccoc1 (configuration not stated): FALSE
- COc1cccc2c1C(=O)c1c(O)c3c(c(O)c1C2=O)C[C@@](O)(C(=O)CO)CC3OC1CC(N(C)CCOCC(OC(C)=O)OC(C)=O)C(O)C(C)O1 (some centres not stated): TRUE
- O=c1c(-c2ccccc2)c(SCCN2CCCCCC2)n(-c2ccccc2)c(=S)n1-c1ccccc1: FALSE
- NC(=O)CC1(O)C=CC(=O)C=C1: FALSE
- O=c1c(=O)c2cscc2c1=O: FALSE
- COC(=O)C1=C(CO)C2C=CC1C2 (configuration not stated): FALSE
- Cn1c2ccccc2n2c(=O)c3cccnc3c(C#N)c12: FALSE
- Nc1nc(N)c(N=O)c(Nc2ccc(I)cc2)n1: FALSE
- O=C(N/C(=C\c1ccc([N+](=O)[O-])cc1)c1nc2c(O)nc(S)nc2[nH]1)c1ccccc1: FALSE

###

Overview of reported GI50 across a group of molecules:
System: HL-60
Assay: NCI tumour cell line growth inhibition, 48 h
Activity calls are given as the source filed them. No stated cut-off is given here; in the data, active = GI50 up to about 1.1 µM and inactive = higher.
MEASURE: GI50

- Cc1c2cc[n+](C)cc2c(C)c2c1[nH]c1ccc(OC(C)C)cc12: 2.56 µM (inactive)
- O=C(O)c1cc(=O)c2cc(C(=O)c3cccs3)c(Cl)c(Cl)c2o1: > 100 µM (inactive)
- O=C1O/C(=C(\Br)c2ccc([N+](=O)[O-])cc2)c2ccccc21: 36.1 µM (inactive)
- O=C1CC(c2ccc([N+](=O)[O-])cc2)C2(C(=O)NC(=S)NC2=O)C(c2ccc([N+](=O)[O-])cc2)C1 (stereo not given): 51.6 µM (inactive)
- CCc1nc(N)nc(N)c1-c1ccc(N2CCOCC2)c(N=[N+]=[N-])c1: > 28.2 µM (inactive)

###

Test system: HOP-62
Test: NCI tumour cell line growth inhibition, 48 h
The source made the active and inactive calls. Cut-off read from the data, not from the text of the source: active = GI50 up to about 1.1 µM and inactive = higher.
GI50 overview
MEASURE: GI50

- O=c1c2ccccc2c(=O)n2n1-c1cccc(c1)CSSCc1cccc-2c1: > 10 µM (inactive)
- CC1(C)S[C@@H]2[C@H](NC(=O)/C=C/c3ccccc3)C(=O)N2[C@H]1C(=O)O: > 100 µM (inactive)
- O=C(CC(=O)N1N=C(n2ccc3ccccc32)CC1c1ccccc1)Nc1ccc(Cl)cc1 (configuration not stated): > 100 µM (inactive)
- CN1CCN(CCCCNc2cc3c4ccccc4c(NCCCCN4CCN(C)CC4)cc3c3ccccc23)CC1: 3.59 µM (inactive)
- NC(=O)CC1(O)C=CC(=O)C=C1: > 100 µM (inactive)
- COCOc1ccc(C2(O)Oc3cc(OCOC)ccc3C2C)c(O)c1 (configuration not stated): 18 µM (inactive)
- N#CC1=CNc2sccc2S1(=O)=O: > 100 µM (inactive)
- COC(=O)C1C(O)CCC2CN3CCc4c([nH]c5cccc(OC)c45)C3CC21 (configuration not stated): > 100 µM (inactive)
- CN(C)c1ccc(/C=C2\C[C@H]3[C@@H]4CCc5cc(OCCN6CCCC6)ccc5[C@H]4CC[C@]3(C)[C@H]2O)cc1: 15.1 µM (inactive)
- CCOC(CN(C)C(=O)Nc1cccc2ccccc12)OCC: > 10 µM (inactive)
- C=CCCCN1C(=O)C2C3c4ccccc4C(C=O)(c4ccccc43)C2C1=O (configuration not stated): 14.5 µM (inactive)
- O=C1CNS(=O)(=O)N1: > 100 µM (inactive)
- O=C(CC1C(=O)Nc2ccccc2[S+]1[O-])Nc1ccc(Cl)cc1 (configuration not stated): 33.7 µM (inactive)
- Cc1cccc2c(NCCN(C)C)c3cccc(C(=O)NCCN(C)C)c3nc12: 0.258 µM (active)
- NC(=O)c1ncn(C2OC(CO)C(O)C2O)c1O (configuration not stated): > 100 µM (inactive)
- CC1CCCC(C(=O)/C(=C/c2cccc(Cl)c2)C(=O)C(=O)O)C1 (configuration not stated): > 100 µM (inactive)
- O=C(NC(Nc1ccc(F)c(Cl)c1)(C(F)(F)F)C(F)(F)F)OCc1ccccc1: 30.3 µM (inactive)
- C=CC(=O)N1C/C(=C\c2ccc(N(C)C)cc2)C(=O)/C(=C/c2ccc(N(C)C)cc2)C1: > 100 µM (inactive)
- Cn1c2n/c(=N\c3ccc(Cl)cc3)[n+]3ccc4ccccc4c3c-2c([O-])n1-c1ccccc1: > 100 µM (inactive)
- NC(CCSCC(F)(F)F)C(=O)O (configuration not stated): > 100 µM (inactive)
- CC1(C)C(c2ccccc2)=[N+]([O-])C(C)(C)N1O: > 10 µM (inactive)
- O=C1CC(c2ccc[nH]2)=NN1c1ccccc1: > 100 µM (inactive)
